In this section, each of the compounds is paired with its reported MIC.
Test system: Pseudomonas aeruginosa
Assay: Antibacterial activity against Pseudomonas aeruginosa MTCC 424 after 16 hr by cup-plate method
Format: functional
Settings: MTCC 424, 16 h
recordedMetric: MIC (µg/mL)

# compound, qualifierSign, result
rows = [
    ("Clc1ccc2c(c1)Sc1cccnc1N2CCCCN1c2ccc(Cl)cc2Sc2cccnc21", "=", 50),
    ("CC(=O)Nc1ccccc1Sc1ncccc1[N+](=O)[O-]", "=", 12.5),
    ("CC(=O)Nc1ccc(Br)cc1Sc1ncccc1[N+](=O)[O-]", "=", 6.25),
    ("Clc1ccc2c(c1)Sc1cccnc1N2CCCCCCN1c2ccc(Cl)cc2Sc2cccnc21", "=", 25),
    ("c1ccc2c(c1)Sc1cccnc1N2CCCCCCN1c2ccccc2Sc2cccnc21", "=", 50),
    ("O=C(O)c1cn(C2CC2)c2cc(N3CCNCC3)c(F)cc2c1=O [CIPROFLOXACIN]", "=", 6.25),
    ("Fc1ccc2c(c1)Sc1cccnc1N2CCCCN1c2ccc(F)cc2Sc2cccnc21", ">", 50),
    ("C(=C\\CN1c2ccccc2Sc2cccnc21)/CN1c2ccccc2Sc2cccnc21", "=", 12.5),
    ("Fc1ccc2c(c1)Sc1cccnc1N2CCCCCCN1c2ccc(F)cc2Sc2cccnc21", "=", 6.25),
    ("Brc1ccc2c(c1)Sc1cccnc1N2C/C=C/CN1c2ccc(Br)cc2Sc2cccnc21", ">", 50),
    ("Brc1ccc2c(c1)Sc1cccnc1N2CCCCCCN1c2ccc(Br)cc2Sc2cccnc21", "=", 6.25),
    ("CC(=O)Nc1ccc(Cl)cc1Sc1ncccc1[N+](=O)[O-]", "=", 6.25),
    ("c1ccc2c(c1)Sc1cccnc1N2CCCCN1c2ccccc2Sc2cccnc21", "=", 6.25),
    ("CC(=O)Nc1ccc(F)cc1Sc1ncccc1[N+](=O)[O-]", "=", 6.25),
    ("Brc1ccc2c(c1)Sc1cccnc1N2CCCCN1c2ccc(Br)cc2Sc2cccnc21", "=", 12.5),
]
